test system: Alopecurus myosuroides; test: Pre-emergence herbicidal action against ALOMY; format: in vivo; conditions: 20 g/ha; visual score after 3 weeks vs untreated controls
Pre-emergence action against ALOMY values by entry
State the answer as a number, implicitly in %.

# Substance smiles, Pre-emergence action against ALOMY, %
records = [
    ("CCn1nnnc1NC(=O)c1ccc(C(F)F)c(C(=O)N(C)C2CC2)c1Cl", 90),
    ("CCn1nnnc1NC(=O)c1ccc(C(F)F)c(C(=O)N(C2CC2)C2CC2)c1Cl", 80),
]

Here's the next entry for you.
Indicate the recorded Pre-emergence action against ALOMY value for this molecule: CN(C)C(=O)c1c(Br)ccc(C(=O)Nc2nnnn2C)c1Cl
90
